- System: rat skeletal muscle cell line, L6
- METHOD_NOTES: cells
- Type: cell-based
- CONDITION_INFO: Rattus norvegicus; Table 1; read-out: IC50 Toxicity (L6)
pIC50: −log10 of the molar value.

{"COMPOUND": "Cc1ccc(/C=C2\\Oc3ccc(Br)cc3C2=O)cc1 [Aurone 6000]", "pIC50": "< 4.00"}
{"COMPOUND": "O=C1/C(=C/c2cccc(Br)c2)Oc2ccccc21 [Aurone 9030]", "pIC50": "< 4.00"}
{"COMPOUND": "O=C1/C(=C/c2ccc(F)cc2)Oc2ccccc21 [Aurone 9002]", "pIC50": "< 4.00"}
{"COMPOUND": "O=C1/C(=C/c2cccc(O)c2)Oc2ccccc21 [Aurone 9252]", "pIC50": "< 4.00"}
{"COMPOUND": "Cc1ccc(/C=C2\\Oc3ccccc3C2=O)cc1 [Aurone 9065]", "pIC50": "< 4.00"}
{"COMPOUND": "O=C1/C(=C/c2ccc[nH]2)Oc2cc(O)ccc21 [Aurone 2906]", "pIC50": "< 4.00"}
{"COMPOUND": "O=C1/C(=C/c2ccccc2O)Oc2ccccc21 [Aurone 9088]", "pIC50": "< 4.00"}
{"COMPOUND": "O=C1/C(=C/c2ncc[nH]2)Oc2ccccc21 [Aurone 2026]", "pIC50": "< 4.00"}
{"COMPOUND": "O=C1/C(=C/c2ccc(/C=C3\\Oc4ccccc4C3=O)cc2)Oc2ccccc21 [Aurone 6617]", "pIC50": "< 3.40"}
{"COMPOUND": "O=C1/C(=C/c2ccc(CO)o2)Sc2ccccc21 [TA2]", "pIC50": "< 3.70"}
